Test: Selectivity ratio of IC50 value against D-2 receptor to that of 5-HT1A receptor.
measuredMetric: Selectivity

- molecule: "COc1ccc2c(c1)C(CCCN1CCN(c3ccccc3OC)CC1)=CCC2"
  measuredMetric: "Selectivity"
  experimentalResult: 45
- molecule: "COc1ccc2c(c1)C(CCCN1CCN(c3ccccc3)CC1)CCC2 (stereo not given)"
  measuredMetric: "Selectivity"
  experimentalResult: 3
- molecule: "COc1cccc2c1CCC=C2CCCN1CCN(c2cccc(C(F)(F)F)c2)CC1"
  measuredMetric: "Selectivity"
  experimentalResult: 12
- molecule: "COc1ccccc1N1CCN(CCCC2CCCc3ccccc32)CC1 (stereo not given)"
  measuredMetric: "Selectivity"
  experimentalResult: 63
- molecule: "COc1ccc2c(c1)C(CCCN1CCN(c3ccccn3)CC1)=CCC2"
  measuredMetric: "Selectivity"
  experimentalResult: 12

A: COc1ccc2c(c1)C(CCCN1CCN(c3ccccn3)CC1)CCC2 (stereo not given)
B: COc1ccccc1N1CCN(CCSC2CCCc3c(OC)cccc32)CC1 (stereo not given)
C: COc1cccc2c1CCCC2CCCN1CCN(c2cccc(C(F)(F)F)c2)CC1 (stereo not given)
D: COc1ccc2c(c1)C(CCCN1CCN(c3cccc(C(F)(F)F)c3)CC1)CCC2 (stereo not given)
E: COc1ccccc1N1CCN(CCCCC2=CCCc3c(OC)cccc32)CC1
query: Number of molecules to sort: 5. Sort criterion: Selectivity, ascending. The reply should contain the labels ordered as requested.
result: C, B, D, A, E

a: COc1ccccc1N1CCN(CCCCC2CCCc3c(OC)cccc32)CC1 (stereo not given)
b: COc1ccccc1N1CCN(CCNC2CCCc3c(OC)cccc32)CC1 (stereo not given)
c: COc1ccccc1N1CCN(CC/C=C2\CCCc3c(OC)cccc32)CC1
query: Falling order of Selectivity, please. Could you list the labels in the order requested?
result: b, c, a

---

Target: 5-hydroxytryptamine receptor 1A (Rattus norvegicus)
Sequence (P19327 whole entry): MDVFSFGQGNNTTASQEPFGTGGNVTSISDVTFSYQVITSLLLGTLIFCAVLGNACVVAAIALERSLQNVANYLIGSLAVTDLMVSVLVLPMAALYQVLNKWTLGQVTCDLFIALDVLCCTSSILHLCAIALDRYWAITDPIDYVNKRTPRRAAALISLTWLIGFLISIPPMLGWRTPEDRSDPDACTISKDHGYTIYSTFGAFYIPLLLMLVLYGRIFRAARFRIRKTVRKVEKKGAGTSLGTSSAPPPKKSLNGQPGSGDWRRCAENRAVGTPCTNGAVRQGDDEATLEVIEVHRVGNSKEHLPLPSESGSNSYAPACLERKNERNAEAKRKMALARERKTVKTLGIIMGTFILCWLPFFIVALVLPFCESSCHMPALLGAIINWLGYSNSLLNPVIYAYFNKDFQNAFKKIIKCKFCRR
measuredMetric: IC50 (nM)

The examples below pair each entry with its known result.
- molecule: "COc1ccc2c(c1)C(NCCN1CCN(c3ccccc3OC)CC1)CCC2 (stereo not given)"
  targetSystem: "5-hydroxytryptamine receptor 1A (Rattus norvegicus)"
  experimentalResult: 40.3
- molecule: "COc1cccc2c1CCCC2CCCN1CCN(c2ccccn2)CC1 (stereo not given)"
  targetSystem: "5-hydroxytryptamine receptor 1A (Rattus norvegicus)"
  experimentalResult: 0.58
- molecule: "COc1cccc2c1CCC/C2=C\\CCN1CCN(c2ccccn2)CC1"
  targetSystem: "5-hydroxytryptamine receptor 1A (Rattus norvegicus)"
  experimentalResult: 0.35

a: COc1ccccc1N1CCN(CCCC2=CCCc3c(OC)cccc32)CC1
b: COc1cccc2c1CCCC2CCCN1CCN(c2cccc(C(F)(F)F)c2)CC1 (stereo not given)
c: COc1ccc2c(c1)C(CCCN1CCN(c3cccc(C(F)(F)F)c3)CC1)CCC2 (stereo not given)
query: Rank by IC50 (largest to smallest). I would appreciate it if you listed the labels in the requested order.
result: b, c, a

1: COc1ccccc1N1CCN(CCCCC2=CCCc3c(OC)cccc32)CC1
2: COc1ccc2c(c1)C(CCCN1CCN(c3ccccn3)CC1)=CCC2
3: COc1ccccc1N1CCN(CCNC2CCCc3c(OC)cccc32)CC1 (stereo not given)
query: Please put the entries in order of rising IC50. Lab note: final answer is the ordered label list.
result: 3, 1, 2
